The following compounds are shown together with reported pIC50 values.
Biological target: PTP-1B (Homo sapiens)
Construct: PTP-1B (purified, 1 mg/mL) as a 1:250 dilution
Sequence (P18031 1-321 limits assumed): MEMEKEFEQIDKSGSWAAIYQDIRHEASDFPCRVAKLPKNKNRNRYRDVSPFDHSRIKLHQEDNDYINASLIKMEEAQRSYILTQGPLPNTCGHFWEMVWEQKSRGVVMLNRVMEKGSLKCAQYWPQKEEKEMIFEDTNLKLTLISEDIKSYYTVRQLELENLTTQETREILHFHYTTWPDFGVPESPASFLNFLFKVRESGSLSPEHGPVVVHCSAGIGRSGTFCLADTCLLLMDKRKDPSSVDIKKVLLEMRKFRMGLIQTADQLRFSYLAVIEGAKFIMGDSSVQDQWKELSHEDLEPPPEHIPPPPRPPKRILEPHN
Assay: pNPP assay for tyrosine phosphatase inhibitory activity
Assay type: biochemical
Details: Table 2; pNPP substrate 10 mM, 30° C., 10 minutes, absorbance at 405 nm
pIC50: −log10 of the molar value.

Consider the following illustrative entries.
CC(C)(C)C(=O)OCOP(=O)(OCOC(=O)C(C)(C)C)C(F)(F)c1ccc(CN(c2ccc(F)cc2)c2ncc(-c3ccc(S(C)(=O)=O)cc3)o2)cc1Br    4.00 to 5.00
NC(=O)c1ccc(-c2cnc(N(Cc3ccc(C(F)(F)P(=O)(O)O)c(Br)c3)c3ccc(F)cc3)o2)cc1    6.30 to 7.00
O=C(O)c1ccccc1-c1ccc(-c2cnc(N(Cc3ccc(C(F)(F)P(=O)(O)O)c(Br)c3)c3ccc(Cl)cc3)o2)cc1    6.30 to 7.00
COc1cccc(CN(Cc2ccc(C(F)(F)P(=O)(O)O)c(Br)c2)c2ncc(-c3ccc(S(C)(=O)=O)cc3)o2)c1    6.30 to 7.00

Given the entry CS(=O)(=O)c1ccc(-c2cnc(N(Cc3ccc(C(F)(F)P(=O)(O)O)c(Br)c3)c3ccc(F)cc3)o2)cc1 , report its measured pIC50. > 7.00

Given the entry CN(Cc1ccc(C(F)(F)P(=O)(O)O)c(Br)c1)c1ncc(-c2ccc(-c3ccccc3C(=O)O)cc2)o1 , report its measured pIC50. 6.00 to 6.30

Given the entry CS(=O)(=O)c1ccc(-c2cnc(N(Cc3ccc(C(F)(F)P(=O)(O)Oc4ccccc4)c(Br)c3)c3ccc(F)cc3)o2)cc1 , report its measured pIC50. 4.00 to 5.00
